# System: Enterococcus faecalis
# Test Summary: In vitro antibacterial activity against vancomycin resistant strain Streptococcus faecalis 02D2DU17
# Assay type: functional
Give MIC for every item shown.
# output: bare number, implied unit µg/mL

Entry CC(=O)NC[C@H]1CN(c2ccc(C(C)=O)cc2)C(=O)O1 [DUP-721] needs its MIC filled in; supply it.
2.5

State its MIC for this molecule: CC(=O)NC[C@H]1C=C(c2ccc(C(C)=O)cc2)C(=O)O1
2.5

====

# Test system: Enterococcus faecium
# Test Summary: In vitro antibacterial activity against sensitive strain Streptococcus faecium M78L
# Format: functional
Experimental Readout: MIC (µg/mL)
Lab book: enter the figure in µg/mL, no units written.

Answer with reported MIC of CC(=O)NC[C@H]1CN(c2ccc(C(C)=O)cc2)C(=O)O1
2.5

Give the value of MIC reported for the following: CC(=O)NC[C@H]1C=C(c2ccc(C(C)=O)cc2)C(=O)O1
5

// data source = ChEMBL document CHEMBL1127945
